- Test system: 2Sb-muMax20 (muMax20 with two 1,3-bis(methyl)benzene Cys staples, A13C/A17C and Q88C/A92C, C-terminal Lys)
- Test: PBM 8-mer E-score (E-score (rank enrichment, -0.5 to 0.5)); higher = stronger preferential binding
Whole data set: some 33,000 sequences, median “E-score (rank enrichment, -0.5 to 0.5)” near -0.0028, cut for the highest 2% near 0.23. The sample holds the highest values, similar sequences and a random draw of the others, so the mix is not that of the screen.
Value type: PBM 8-mer E-score
Provide a numeric answer; units are not to be included.

query: Find the recorded PBM 8-mer E-score belonging to `ATTAATTC` and report it.
result: 0.105

query: Find the recorded PBM 8-mer E-score belonging to `ATGAGGGG` and report it.
result: 0.267

query: Find the recorded PBM 8-mer E-score belonging to `AATATGGC` and report it.
result: 0.221

query: Find the recorded PBM 8-mer E-score belonging to `AAGGGGTG` and report it.
result: 0.117

query: Find the recorded PBM 8-mer E-score belonging to `CCATCGCG` and report it.
result: 0.124

query: Find the recorded PBM 8-mer E-score belonging to `ATTAATGA` and report it.
result: 0.278

query: Find the recorded PBM 8-mer E-score belonging to `CAGTGAAG` and report it.
result: -0.0862

query: Find the recorded PBM 8-mer E-score belonging to `ATTCCAAT` and report it.
result: -0.0251

query: Find the recorded PBM 8-mer E-score belonging to `GAATGCTA` and report it.
result: -0.216

query: Find the recorded PBM 8-mer E-score belonging to `ATGAGGGC` and report it.
result: 0.0989

query: Find the recorded PBM 8-mer E-score belonging to `AGTAGGGA` and report it.
result: 0.0636

query: Find the recorded PBM 8-mer E-score belonging to `ATCCAAGG` and report it.
result: -0.161

query: Find the recorded PBM 8-mer E-score belonging to `CTATAAGA` and report it.
result: 0.0167

query: Find the recorded PBM 8-mer E-score belonging to `CAAATACA` and report it.
result: 0.23

query: Find the recorded PBM 8-mer E-score belonging to `CTGGGGTA` and report it.
result: 0.179

query: Find the recorded PBM 8-mer E-score belonging to `CTATAATA` and report it.
result: 0.0375

query: Find the recorded PBM 8-mer E-score belonging to `ATTAATTG` and report it.
result: 0.175

query: Find the recorded PBM 8-mer E-score belonging to `GAAATACA` and report it.
result: -0.0423

query: Find the recorded PBM 8-mer E-score belonging to `ATTAATGG` and report it.
result: 0.0434

query: Find the recorded PBM 8-mer E-score belonging to `ATCTAGGG` and report it.
result: 0.171

query: Find the recorded PBM 8-mer E-score belonging to `TATAAACA` and report it.
result: 0.156

query: Find the recorded PBM 8-mer E-score belonging to `AGTAGGGG` and report it.
result: 0.306

query: Find the recorded PBM 8-mer E-score belonging to `ATGGGGTA` and report it.
result: 0.249

query: Find the recorded PBM 8-mer E-score belonging to `AATATATA` and report it.
result: 0.162

query: Find the recorded PBM 8-mer E-score belonging to `AGCGAGGA` and report it.
result: -0.0458

query: Find the recorded PBM 8-mer E-score belonging to `AGGGGGTG` and report it.
result: -0.116

query: Find the recorded PBM 8-mer E-score belonging to `ATGTTTAC` and report it.
result: 0.195

query: Find the recorded PBM 8-mer E-score belonging to `ATAAATTA` and report it.
result: 0.307

query: Find the recorded PBM 8-mer E-score belonging to `ATATAAGA` and report it.
result: 0.249

query: Find the recorded PBM 8-mer E-score belonging to `CACGTCCC` and report it.
result: -0.161

query: Find the recorded PBM 8-mer E-score belonging to `GTTAACTA` and report it.
result: 0.207

query: Find the recorded PBM 8-mer E-score belonging to `ATATAATA` and report it.
result: 0.274

query: Find the recorded PBM 8-mer E-score belonging to `AATATATT` and report it.
result: 0.24

query: Find the recorded PBM 8-mer E-score belonging to `ATGGGGTG` and report it.
result: 0.238

query: Find the recorded PBM 8-mer E-score belonging to `CGGTACCC` and report it.
result: -0.133

query: Find the recorded PBM 8-mer E-score belonging to `GATACTCC` and report it.
result: -0.0231

query: Find the recorded PBM 8-mer E-score belonging to `ACATAATC` and report it.
result: 0.142

query: Find the recorded PBM 8-mer E-score belonging to `ACCGTCAT` and report it.
result: 0.0687

query: Find the recorded PBM 8-mer E-score belonging to `ATTAATTA` and report it.
result: 0.263

query: Find the recorded PBM 8-mer E-score belonging to `CTCGCCAG` and report it.
result: -0.193

query: Find the recorded PBM 8-mer E-score belonging to `GTATAATA` and report it.
result: 0.226

query: Find the recorded PBM 8-mer E-score belonging to `CAAATACC` and report it.
result: 0.0305

query: Find the recorded PBM 8-mer E-score belonging to `CCCGCGAG` and report it.
result: 0.015

query: Find the recorded PBM 8-mer E-score belonging to `AACAGCGA` and report it.
result: -0.213

query: Find the recorded PBM 8-mer E-score belonging to `ATTAACTC` and report it.
result: 0.136

query: Find the recorded PBM 8-mer E-score belonging to `ACATAATA` and report it.
result: 0.302

====

- Test system: 2Sb-muMax20 (muMax20 with two 1,3-bis(methyl)benzene Cys staples, A13C/A17C and Q88C/A92C, C-terminal Lys)
- Test: PBM 8-mer E-score (E-score (rank enrichment, -0.5 to 0.5)); higher = stronger preferential binding
In all, about 33,000 sequences were measured (“E-score (rank enrichment, -0.5 to 0.5)”: median about -0.0028, highest 2% from about 0.23 on). The list comes from a sample in which the highest values are over-represented; it also holds close analogues and randomly drawn sequences.
# cutoff 0.09 applies to PBM 8-mer E-score; >= gives fulfilled, < gives not fulfilled

query: Could you tell me if the measured PBM 8-mer E-score of `AAAACCAC` reaches 0.09 or more?
result: fulfilled

query: Could you tell me if the measured PBM 8-mer E-score of `GACATTAA` reaches 0.09 or more?
result: not fulfilled

query: Could you tell me if the measured PBM 8-mer E-score of `CGCCTCAA` reaches 0.09 or more?
result: not fulfilled

query: Could you tell me if the measured PBM 8-mer E-score of `AAAAGCCA` reaches 0.09 or more?
result: not fulfilled

query: Could you tell me if the measured PBM 8-mer E-score of `ATGCGGGC` reaches 0.09 or more?
result: not fulfilled

query: Could you tell me if the measured PBM 8-mer E-score of `GGTTCCAC` reaches 0.09 or more?
result: not fulfilled

query: Could you tell me if the measured PBM 8-mer E-score of `GCCAGTGA` reaches 0.09 or more?
result: not fulfilled

query: Could you tell me if the measured PBM 8-mer E-score of `AACGTGTC` reaches 0.09 or more?
result: not fulfilled

query: Could you tell me if the measured PBM 8-mer E-score of `CCCGTGTC` reaches 0.09 or more?
result: not fulfilled

query: Could you tell me if the measured PBM 8-mer E-score of `AAATCGAC` reaches 0.09 or more?
result: not fulfilled

query: Could you tell me if the measured PBM 8-mer E-score of `CACGTGTC` reaches 0.09 or more?
result: fulfilled

query: Could you tell me if the measured PBM 8-mer E-score of `CTCATTAA` reaches 0.09 or more?
result: fulfilled

query: Could you tell me if the measured PBM 8-mer E-score of `ATCATTAA` reaches 0.09 or more?
result: fulfilled

query: Could you tell me if the measured PBM 8-mer E-score of `ATATAAAT` reaches 0.09 or more?
result: fulfilled

query: Could you tell me if the measured PBM 8-mer E-score of `ATGCACTG` reaches 0.09 or more?
result: not fulfilled

query: Could you tell me if the measured PBM 8-mer E-score of `GAAGGTAA` reaches 0.09 or more?
result: not fulfilled

query: Could you tell me if the measured PBM 8-mer E-score of `TACGAAGA` reaches 0.09 or more?
result: fulfilled

query: Could you tell me if the measured PBM 8-mer E-score of `AACATTAC` reaches 0.09 or more?
result: fulfilled

query: Could you tell me if the measured PBM 8-mer E-score of `CCATCGAG` reaches 0.09 or more?
result: not fulfilled

query: Could you tell me if the measured PBM 8-mer E-score of `CACGTGTA` reaches 0.09 or more?
result: fulfilled

query: Could you tell me if the measured PBM 8-mer E-score of `AAGGTTCC` reaches 0.09 or more?
result: not fulfilled

query: Could you tell me if the measured PBM 8-mer E-score of `ATGGACCG` reaches 0.09 or more?
result: not fulfilled
